- Test system: HIV strain K103N + Y181C
- assay.overview: microbe, parasite or virus in culture
- Type: cell-based, HIV-1
- condition.details: Human immunodeficiency virus 1, 72 h, read-out: K103N + Y181C pEC50 (-log EC50) (converted)
value.kind: EC50 (nM)

[[record]]
molecule = "COCc1nc(Nc2ccc(C#N)cc2)nc(Nc2c(C)cc(/C=C/C#N)cc2C)c1-c1ccncc1 [Compound 3]"
experimental_target = "HIV strain K103N + Y181C"
assay_result = 29.5

[[record]]
molecule = "COCc1nc(Nc2ccc(C#N)cc2)nc(Nc2c(C)cc(/C=C/C#N)cc2C)c1C(O)c1nccs1 (centres unmarked) [Compound 38]"
experimental_target = "HIV strain K103N + Y181C"
assay_result = 12.3

[[record]]
molecule = "COCc1nc(Nc2ccc(C#N)cc2)nc(Nc2c(C)cc(/C=C/C#N)cc2C)c1-c1cccnc1 [Compound 2]"
experimental_target = "HIV strain K103N + Y181C"
assay_result = 21.4

[[record]]
molecule = "COCc1nc(Nc2ccc(C#N)cc2)nc(Nc2c(C)cc(/C=C/C#N)cc2C)c1-c1cccs1 [Compound 4]"
experimental_target = "HIV strain K103N + Y181C"
assay_result = 15.5

[[record]]
molecule = "COCc1nc(Nc2ccc(C#N)cc2)nc(Nc2c(C)cc(/C=C/C#N)cc2C)c1C(C)O (centres unmarked) [Compound 37]"
experimental_target = "HIV strain K103N + Y181C"
assay_result = 6.03

